System: lymphocytes
Test: enzyme activity with fluorogenic substrate, normal lymphocytes (Table 3A)
Assay type: cell-based, human
Numbered stars: 1 amine (or outer) side, 2 acyl side, 3 side chain; on linkers, the order of the positions; unused ones are H or OH. Bridge positions count the residues as written; N and C are the ends. Peptide text beside a SMILES is read from it. I, II: the chains in the order shown. Rhodamine110 = O=C1OC2(c3ccc(N[*:1])cc3Oc3cc(N[*:2])ccc32)c2ccccc21
Label 1 when NORMAL LEUKOCYTE ENZYME ACTIVITY LYMPHS Mean is strictly below 0.4; otherwise label 0.

Take the compound O=C1OC2(c3ccc(OP(=O)(O)O)cc3Oc3cc(OP(=O)(O)O)ccc32)c2ccccc21 [DPO4, (PO4)2 fluorescein] and say whether its NORMAL LEUKOCYTE ENZYME ACTIVITY LYMPHS Mean is less than 0.4.
0

For C[C@@H](O)[C@H](NC(=O)OCc1ccccc1)C(=O)N1CCC[C@H]1C(=O)Nc1ccc2c(c1)Oc1cc(NC(=O)[C@@H]3CCCN3C(=O)[C@@H](NC(=O)OCc3ccccc3)[C@@H](C)O)ccc1C21OC(=O)c2ccccc21 [Z-TP6.5M] , is the recorded NORMAL LEUKOCYTE ENZYME ACTIVITY LYMPHS Mean below the cut-off of 0.4?
0

Report whether reported NORMAL LEUKOCYTE ENZYME ACTIVITY LYMPHS Mean is lower than 0.4 (strictly) for O=C1OC2(c3ccc(OC4O[C@H](CO)[C@@H](O)[C@H](O)[C@H]4O)cc3Oc3cc(OC4O[C@H](CO)[C@@H](O)[C@H](O)[C@H]4O)ccc32)c2ccccc21 (some centres unmarked) [DIGLUC (FL)]
1

Problem: For the compound CC(=O)Oc1ccc2c(c1)Oc1cc(OC(C)=O)ccc1C21OC(=O)c2ccccc21 [FDA-NAF, fluorescein diacetate, reference compound] , is NORMAL LEUKOCYTE ENZYME ACTIVITY LYMPHS Mean under 0.4?
0

Take the compound C[C@H](NC(=O)CNC(=O)[C@H](Cc1ccccc1)NC(=O)CN)C(=O)Nc1ccc2c(c1)Oc1cc(NC(=O)[C@H](C)NC(=O)CNC(=O)[C@H](Cc3ccccc3)NC(=O)CN)ccc1C21OC(=O)c2ccccc21 [GFGA, (Gly-Phe-Gly-Ala)2 Rho 110] (I: H-GFGA / II: H-GFGA; linker I:C-II:C via Rhodamine110) and say whether its NORMAL LEUKOCYTE ENZYME ACTIVITY LYMPHS Mean is less than 0.4.
1

* * *

Test system: granulocytes
Assay: peptidase activity in leukemia and non-leukemia patients, granulocytes (Table 6C)
Type: cell-based, human
Design: unit not given here
Settings: N206 normal
Source text: Artificial intelligence was used to analyze data of cellular enzyme functions, and determine normal and disease states. Peptidases were used to distinguish leukemia from non-leukemia (output pattern). For input patterns lymphocyte and granulocyte cell types were used with aminopeptidases, cathepsins and dipeptidylpeptidase enzyme activities. […]
OBSERVATION_TYPE: enzyme activity, Grans
API doc: respond with a numeric literal and nothing else, no unit.

# query: enzyme activity, Grans of entry C[C@H](N)C(=O)Nc1ccc2c(c1)Oc1cc(NC(=O)[C@H](C)N)ccc1C21OC(=O)c2ccccc21
232.57

Item NC(=O)CC[C@H](N)C(=O)N[C@@H](CO)C(=O)Nc1ccc2c(c1)Oc1cc(NC(=O)[C@H](CO)NC(=O)[C@@H](N)CCC(N)=O)ccc1C21OC(=O)c2ccccc21 [QS, (H-L-Gln--Ser)2 Rho 110 .2TFA] has what recorded enzyme activity, Grans?
0.27

Please report the recorded enzyme activity, Grans for NCC(=O)N1CCC[C@H]1C(=O)Nc1ccc2c(c1)Oc1cc(NC(=O)[C@@H]3CCCN3C(=O)CN)ccc1C21OC(=O)c2ccccc21 [GP, (H-Gly--Pro)2 Rho .2TFA] .
17.96

GET /values?readout=enzyme activity, Grans&item= C[C@@H](O)[C@H](N)C(=O)N1CCC[C@H]1C(=O)Nc1ccc2c(c1)Oc1cc(NC(=O)[C@@H]3CCCN3C(=O)[C@@H](N)[C@@H](C)O)ccc1C21OC(=O)c2ccccc21 [TP, (H-L-Thr--Pro)2 Rho 110 .2TFA]
5.98

* * *

Kindly supply the reported enzyme activity, Grans values for the records listed here.
Tested on: granulocytes
Experiment: peptidase activity in leukemia and non-leukemia patients, granulocytes (Table 6C)
Type: cell-based, human
Parameters: unit not given here
Details: J19 11/27/91 C L L
The answer should be a number; do not append a unit.

Name the reported enzyme activity, Grans value associated with the molecule C[C@@H](O)[C@H](N)C(=O)N1CCC[C@H]1C(=O)Nc1ccc2c(c1)Oc1cc(NC(=O)[C@@H]3CCCN3C(=O)[C@@H](N)[C@@H](C)O)ccc1C21OC(=O)c2ccccc21 [TP, (H-L-Thr--Pro)2 Rho 110 .2TFA]
2.95

Fill blank: measured enzyme activity, Grans of the molecule O=C1OC2(c3ccc(NC(=O)[C@@H]4CCCN4)cc3Oc3cc(NC(=O)[C@@H]4CCCN4)ccc32)c2ccccc21 [PRO, (H-L-Pro)2 --Rho 110 .2TFA] is ____.
5.50

Which enzyme activity, Grans is reported for this molecule? NCC(=O)N1CCC[C@H]1C(=O)Nc1ccc2c(c1)Oc1cc(NC(=O)[C@@H]3CCCN3C(=O)CN)ccc1C21OC(=O)c2ccccc21 [GP, (H-Gly--Pro)2 Rho .2TFA]
1.39

// enzyme activity, Grans lookup, key: C[C@H](N)C(=O)Nc1ccc2c(c1)Oc1cc(NC(=O)[C@H](C)N)ccc1C21OC(=O)c2ccccc21
143.11

* * *

Give aberrant enzyme activity, MONOS for every item shown.
Test system: monocytes
Assay: aberrant enzyme activities in febrile children, monocytes (Table 7)
Type: cell-based, human
Conditions: P102 UTI

Query: aberrant enzyme activity, MONOS; subject: O=C1OC2(c3ccc(OP(=O)(O)O)cc3Oc3cc(OP(=O)(O)O)ccc32)c2ccccc21
.smallcircle.

Look up aberrant enzyme activity, MONOS for this compound: C[C@H](NC(=O)[C@@H](N)CCCCN)C(=O)Nc1ccc2c(c1)Oc1cc(NC(=O)[C@H](C)NC(=O)[C@@H](N)CCCCN)ccc1C21OC(=O)c2ccccc21 [KA, (Lys-Ala)2 Rho 110]
.smallcircle.

I have this compound here, CC(C)C[C@H](N)C(=O)Nc1ccc2c(c1)Oc1cc(NC(=O)[C@@H](N)CC(C)C)ccc1C21OC(=O)c2ccccc21 , and I need its recorded aberrant enzyme activity, MONOS.
.smallcircle.

* * *

I'd appreciate it if you could supply aberrant enzyme activity, GRANS values for the items below.
Tested on: granulocytes
Test: aberrant enzyme activities in febrile children, granulocytes (Table 7)
Type: cell-based, human
Settings: P102 UTI

Endpoint output: aberrant enzyme activity, GRANS of CC(C)C[C@H](N)C(=O)Nc1ccc2c(c1)Oc1cc(NC(=O)[C@@H](N)CC(C)C)ccc1C21OC(=O)c2ccccc21 . Value?
.smallcircle.

For the compound CC(=O)Oc1ccc2c(c1)Oc1cc(OC(C)=O)ccc1C21OC(=O)c2ccccc21 [FDA, fluorescein diacetate, reference compound] , what aberrant enzyme activity, GRANS is on record?
.smallcircle.

# lookup: aberrant enzyme activity, GRANS of N=C(N)NCCC[C@H](N)C(=O)Nc1ccc2c(c1)Oc1cc(NC(=O)[C@@H](N)CCCNC(=N)N)ccc1C21OC(=O)c2ccccc21 (stereo partly drawn) [ARG, (H-L-Arg)2 Rho 110 .4TFA]
.smallcircle.

What value of aberrant enzyme activity, GRANS has been reported for the following compound? C[C@H](NC(=O)OCc1ccccc1)C(=O)NCC(=O)Nc1ccc2c(c1)Oc1cc(NC(=O)CNC(=O)[C@H](C)NC(=O)OCc3ccccc3)ccc1C21OC(=O)c2ccccc21 [Z-AG, (Z-Ala--Gly)2 Rho 110]
.smallcircle.

Given the compound CC(=O)Oc1ccc2c(c1)Oc1cc(OC(C)=O)ccc1C21OC(=O)c2ccccc21 [FDA-NAF, fluorescein diacetate, reference compound] , what is its reported aberrant enzyme activity, GRANS?
.smallcircle.

Fill blank: measured aberrant enzyme activity, GRANS of the compound O=C1OC2(c3ccc(OP(=O)(O)O)cc3Oc3cc(OP(=O)(O)O)ccc32)c2ccccc21 is ____.
.smallcircle.

* * *

I'd be grateful if you could share measured enzyme activity, Lymphs for these entries.
Test system: lymphocytes
Test: peptidase activity in leukemia and non-leukemia patients, lymphocytes (Table 6C)
Type: cell-based, human
Parameters: unit not given here
Details: N200 normal
Answer using only a numeral; do not append any unit.

Suppose we examine the compound NC(=O)CC[C@H](N)C(=O)N[C@@H](CO)C(=O)Nc1ccc2c(c1)Oc1cc(NC(=O)[C@H](CO)NC(=O)[C@@H](N)CCC(N)=O)ccc1C21OC(=O)c2ccccc21 [QS, (H-L-Gln--Ser)2 Rho 110 .2TFA] ; what enzyme activity, Lymphs value has been reported?
0.01

Give its enzyme activity, Lymphs value. Item: NCCCC[C@H](N)C(=O)Nc1ccc2c(c1)Oc1cc(NC(=O)[C@@H](N)CCCCN)ccc1C21OC(=O)c2ccccc21 [LYS, (H-L-Lys)2 Rho 110 .4TFA]
0.90

For NCC(=O)N1CCC[C@H]1C(=O)Nc1ccc2c(c1)Oc1cc(NC(=O)[C@@H]3CCCN3C(=O)CN)ccc1C21OC(=O)c2ccccc21 [GP, (H-Gly--Pro)2 Rho .2TFA] , what is its reported enzyme activity, Lymphs?
5.38

Please report the recorded enzyme activity, Lymphs for C[C@H](N)C(=O)Nc1ccc2c(c1)Oc1cc(NC(=O)[C@H](C)N)ccc1C21OC(=O)c2ccccc21 .
101.38

# query: enzyme activity, Lymphs of entry C[C@@H](O)[C@H](N)C(=O)N1CCC[C@H]1C(=O)Nc1ccc2c(c1)Oc1cc(NC(=O)[C@@H]3CCCN3C(=O)[C@@H](N)[C@@H](C)O)ccc1C21OC(=O)c2ccccc21 [TP, (H-L-Thr--Pro)2 Rho 110 .2TFA]
2.39

Which measured enzyme activity, Lymphs value corresponds to O=C1OC2(c3ccc(NC(=O)[C@@H]4CCCN4)cc3Oc3cc(NC(=O)[C@@H]4CCCN4)ccc32)c2ccccc21 [PRO, (H-L-Pro)2 --Rho 110 .2TFA] ?
0.74

Could you share which enzyme activity, Lymphs value was measured for CC(C)[C@H](N)C(=O)N[C@@H](CO)C(=O)Nc1ccc2c(c1)Oc1cc(NC(=O)[C@H](CO)NC(=O)[C@@H](N)C(C)C)ccc1C21OC(=O)c2ccccc21 [VS, (H-L-Val--Ser)2 Rho 110 .2TFA] ?
0.06
